- Tested on: FLAP (5-lipoxygenase activating protein)
- Protocol Description: In vitro binding test: displacement of [3H]-7-chloro-3-(5-((3-fluoropyridin-2-yl)methoxy)-2-methylphenyl)-3,4-dihydroquinazolin-2(1H)-one from Sf9 microsome fractions
- Set-up: species or system human and mouse
- Condition Set: Sf9 microsome fractions expressing FLAP; 100% = radioligand binding with 10 μM sodium 3-(3-(tert-butylsulfanyl)-1-(4-chlorobenzyl)-5-isopropyl-1H-indol-2-yl)-2,2-dimethylpropanoate, 0% = DMSO; test compound concentration not given
Give measured inhibitory rate (%) for each item. Keep answers brief.
Form entry: value (%) — number only.

Lookup: Return reported inhibitory rate (%). Input molecule: O=C1Nc2ccnc(Cl)c2CN1c1ccc2c(c1)OC(c1ncccc1F)CC2 (stereo not shown)
Found: 98

Lookup: Report inhibitory rate (%) for COc1cc2c(c(C3CC3)n1)CN(c1cc3c(cc1C)CCC(c1ncccc1F)O3)C(=O)N2 (stereo not shown)
Found: 106

Lookup: # return recorded inhibitory rate (%) for input `Cc1ccc(OCc2c(F)cccc2F)cc1N1Cc2cnn(C)c2NC1=O`
Found: 69

Lookup: Identify measured inhibitory rate (%) associated with Cc1cc2c(cc1N1Cc3c(Cl)cnc(-c4c(C)noc4C)c3NC1=O)OC(c1ncccc1F)CC2 (single isomer, unassigned; (-)) [Example 11]
Found: 109

###

- Test system: FLAP (5-lipoxygenase activating protein)
- Protocol Description: In vitro binding test: displacement of [3H]-7-chloro-3-(5-((3-fluoropyridin-2-yl)methoxy)-2-methylphenyl)-3,4-dihydroquinazolin-2(1H)-one from Sf9 microsome fractions
- Set-up: species or system human and mouse
- Condition Set: Sf9 microsome fractions expressing FLAP; 100% = radioligand binding with 10 μM sodium 3-(3-(tert-butylsulfanyl)-1-(4-chlorobenzyl)-5-isopropyl-1H-indol-2-yl)-2,2-dimethylpropanoate, 0% = DMSO; test compound concentration not given
Reported Property: inhibitory rate (%)
Write down the numeric answer in % and omit the unit.

Lookup: Read the entry CNC(=O)c1cc2c(c(C3CC3)n1)CN(c1cc3c(cc1Cl)CCC(c1ncccc1F)O3)C(=O)N2 (centres unmarked) and write its reported inhibitory rate (%).
Found: 94

Lookup: Look up and state reported inhibitory rate (%) for `O=C1Nc2cc(CO)ccc2CN1c1cc(OCc2c(F)cccc2F)ccc1Cl`
Found: 95

Lookup: Specify inhibitory rate (%) for Cc1cc2c(cc1N1Cc3c(Cl)cnc(N4CCCC4)c3NC1=O)OC(c1ncccc1F)CC2 (centres unmarked) and stop.
Found: 99

Lookup: Specify measured inhibitory rate (%) for `Cc1ccc(OCc2ncccc2F)cc1N1Cc2c(Cl)cccc2N(Cc2ccccc2C(=O)O)C1=O` .
Found: 95

Lookup: Tell me its inhibitory rate (%) given `CCCN(C)C(=O)c1ccc2c(c1)NC(=O)N(c1cc(OCc3ncccc3F)ccc1C)C2` as the entry.
Found: 105

Lookup: Determine from records and report inhibitory rate (%) for `Cn1cc2c(n1)CN(c1cc(OCc3ncccc3F)ccc1Br)C(=O)N2`
Found: 101

Lookup: Determine from records and report inhibitory rate (%) for `Cc1ccc(OCc2c(F)cccc2F)cc1N1Cc2c(cccc2C(C)(C)O)NC1=O`
Found: 72

Lookup: // fetch inhibitory rate (%) given entry Cn1cc(-c2nccc3c2CN(c2cc4c(cc2Cl)CCC(c2ncccc2F)O4)C(=O)N3)cn1 (centres unmarked)
Found: 100

Lookup: Look up inhibitory rate (%) of `Cc1ccc(OCc2ncccc2F)cc1-n1c(=O)[nH]c2cnc(Cl)cc2c1=O` and report it.
Found: 101

Lookup: Give inhibitory rate (%) for the following compound: `CCCc1ccc(OCc2ncccc2F)cc1N1Cc2ccccc2NC1=O`
Found: 99

Lookup: Indicate the recorded inhibitory rate (%) value for this compound: `O=C(NC1CC1)c1ccc(OCc2ncccc2F)cc1N1Cc2ccccc2NC1=O`
Found: 72

Lookup: For the compound Cn1c(=O)n(-c2ccc3c(c2)OC(c2c(F)cccc2F)CC3)c(=O)c2ccccc21 (centres unmarked) , give its measured inhibitory rate (%) value.
Found: 103

Lookup: Complete the entry with inhibitory rate (%) for Cc1cc2c(cc1N1Cc3c(ccnc3C(C)(C)O)NC1=O)OC(c1ncccc1F)CC2 (centres unmarked)
Found: 106

Lookup: Read the entry Cc1noc(-c2cc3c(c(C4CC4)n2)CN(c2cc4c(cc2Cl)CCC(c2ncccc2F)O4)C(=O)N3)n1 (centres unmarked) and write its reported inhibitory rate (%).
Found: 111

Lookup: Please report inhibitory rate (%) for the following compound: O=c1[nH]c2ccccc2c(=O)n1-c1ccc2c(c1)OC(c1c(F)cccc1F)CC2 (centres unmarked)
Found: 95

Lookup: Tell me inhibitory rate (%) reported for `Cc1ccc(OCc2ncccc2F)cc1N1Cc2nn(CC(F)(F)F)cc2NC1=O`
Found: 97

Lookup: Please give measured inhibitory rate (%) of the following entry: O=C1Nc2c(Cl)cnc(C3CC3)c2CN1c1cc2c(cc1Cl)CCC(c1ncccc1F)O2 (centres unmarked)
Found: 105

###

- System: FLAP (5-lipoxygenase activating protein)
- Protocol Description: In vitro binding test: displacement of [3H]-7-chloro-3-(5-((3-fluoropyridin-2-yl)methoxy)-2-methylphenyl)-3,4-dihydroquinazolin-2(1H)-one from Sf9 microsome fractions
- Set-up: species or system human and mouse
- Condition Set: Sf9 microsome fractions expressing FLAP; 100% = radioligand binding with 10 μM sodium 3-(3-(tert-butylsulfanyl)-1-(4-chlorobenzyl)-5-isopropyl-1H-indol-2-yl)-2,2-dimethylpropanoate, 0% = DMSO; test compound concentration not given
Reported Property: inhibitory rate (%)
Quick reminder: number only, in %, skip the unit.

Lookup: Supply reported inhibitory rate (%) belonging to this molecule: `Cc1ccc(OCc2ncccc2F)cc1N1Cc2ccncc2NC1=O`
Found: 92

Lookup: Indicate the recorded inhibitory rate (%) value for this molecule: `Cc1ccc(OCc2ncccc2F)cc1N1Cc2c(Br)cccc2NC1=O`
Found: 98

Lookup: Assign inhibitory rate (%) to the following record: O=C1Nc2cc(-c3cn[nH]c3)nc(C3CC3)c2CN1c1cc2c(cc1Cl)CCC(c1ncccc1F)O2 (centres unmarked)
Found: 102

Lookup: Input `Cc1ccc(OCc2ncccc2F)cc1N1Cc2c(ccnc2Cl)NC1=O` , output reported inhibitory rate (%).
Found: 103

Lookup: Annotate the molecule Cc1cc2c(cc1N1Cc3c(cc(Oc4ccnn4C)nc3C3CC3)NC1=O)OC(c1ncccc1F)CC2 (centres unmarked) with its measured inhibitory rate (%).
Found: 102

Lookup: Fill in inhibitory rate (%) for record `O=c1[nH]c2cccc(Cl)c2c(=O)n1-c1cc(OCc2ncccc2F)c(F)cc1Cl`
Found: 108

Lookup: Give reported inhibitory rate (%) value for `CCc1ccc(OCc2c(F)cccc2F)cc1N1Cc2ccc(C(C)(C)O)cc2NC1=O`
Found: 109

Lookup: Note inhibitory rate (%) for the molecule shown: Cc1cc2c(cc1N1Cc3c(cc(/C=C/C(=O)O)nc3C3CC3)NC1=O)OC(c1ncccc1F)CC2 (centres unmarked)
Found: 109

###

- Test system: FLAP (5-lipoxygenase activating protein)
- Protocol Description: In vitro binding test: displacement of [3H]-7-chloro-3-(5-((3-fluoropyridin-2-yl)methoxy)-2-methylphenyl)-3,4-dihydroquinazolin-2(1H)-one from Sf9 microsome fractions
- Set-up: species or system human and mouse
- Condition Set: Sf9 microsome fractions expressing FLAP; 100% = radioligand binding with 10 μM sodium 3-(3-(tert-butylsulfanyl)-1-(4-chlorobenzyl)-5-isopropyl-1H-indol-2-yl)-2,2-dimethylpropanoate, 0% = DMSO; test compound concentration not given
- Procedure: As an assay buffer, 100 mM Tris-HCl, pH 7.5, 140 mM NaCl, 2 mM EDTA, 0.5 mM dithiothreitol, 5% glycerol, 0.05% Tween20 was used. Sf9 microsome fractions expressing human and mouse FLAPs were dispensed by 50 μL to a 96-well plate at 2 μg/mL. […] The GF/B Unifilter plate was dried at 37° C., Microscint 0 was added and measured by TopCount NXT (PerkinElmer). […]
I'd be grateful if you could share measured inhibitory rate (%) for these entries.
Hi! Could you send only the number? It should be in %, unit omitted.

Lookup: Supply inhibitory rate (%) measured with FLAP (5-lipoxygenase activating protein) for Cc1ccc(OCc2ncccc2F)cc1N1Cc2ccc(C(=O)NC3CC3)cc2NC1=O [Example 261] .
Found: 116

Lookup: Supply inhibitory rate (%) measured with FLAP (5-lipoxygenase activating protein) for O=C(c1cc2c(c(C3CC3)n1)CN(c1cc3c(cc1Cl)CCC(c1ncccc1F)O3)C(=O)N2)N1CCOCC1 (stereo not shown) [Example 74] .
Found: 104

Lookup: Report its inhibitory rate (%) with FLAP (5-lipoxygenase activating protein) as the test system: CN(C)C(=O)c1cc2c(c(C3CC3)n1)CN(c1cc3c(cc1Cl)CCC(c1ncccc1F)O3)C(=O)N2 (stereo not shown) [Example 150]
Found: 98

Lookup: Retrieve inhibitory rate (%) on FLAP (5-lipoxygenase activating protein); query Cc1ccc(S(=O)(=O)Oc2ccc3c(c2)NC(=O)N(c2cc(OCc4ncccc4F)ccc2C)C3)cc1 [Example 252]
Found: 105

###

- System: FLAP (5-lipoxygenase activating protein)
- Protocol Description: In vitro binding test: displacement of [3H]-7-chloro-3-(5-((3-fluoropyridin-2-yl)methoxy)-2-methylphenyl)-3,4-dihydroquinazolin-2(1H)-one from Sf9 microsome fractions
- Set-up: species or system human and mouse
- Condition Set: Sf9 microsome fractions expressing FLAP; 100% = radioligand binding with 10 μM sodium 3-(3-(tert-butylsulfanyl)-1-(4-chlorobenzyl)-5-isopropyl-1H-indol-2-yl)-2,2-dimethylpropanoate, 0% = DMSO; test compound concentration not given
Reported Property: inhibitory rate (%)
Record the value in %, omitting the unit from your answer.

Lookup: Please look at this compound and report its inhibitory rate (%): `CC(C)(C)Cc1ccc(OCc2c(F)cccc2F)cc1N1Cc2ccc(C(C)(C)O)cc2NC1=O`
Found: 84

Lookup: Supply recorded inhibitory rate (%) for O=C1Nc2cc(-c3ncon3)nc(C3CC3)c2CN1c1cc2c(cc1Cl)CCC(c1ncccc1F)O2 (centres unmarked) here.
Found: 111

Lookup: State its inhibitory rate (%): `O=C1Nc2ccccc2CN1c1cc(OCc2ncccc2F)ccc1Br`
Found: 113

Lookup: Determine from records and report inhibitory rate (%) for O=C1Nc2c(-c3ccoc3)ncc(Cl)c2CN1c1cc2c(cc1Cl)CCC(c1ncccc1F)O2 (centres unmarked)
Found: 101

Lookup: Tell me its inhibitory rate (%) given `Cc1ccc(OCc2ncccc2F)cc1N1Cc2cnccc2NC1=O` as the entry.
Found: 83

Lookup: State its inhibitory rate (%): `Cc1cc(I)c(OCc2ncccc2F)cc1N1Cc2ccc(Cl)cc2NC1=O`
Found: 64

Lookup: # return recorded inhibitory rate (%) for input Cc1cc2c(cc1N1Cc3c(F)cnc(-c4cnn(C)c4)c3NC1=O)OC(c1ncccc1F)CC2 (centres unmarked)
Found: 95

Lookup: Please list inhibitory rate (%) recorded for the compound CCc1cc2c(c(C3CC3)n1)CN(c1cc3c(cc1C)CCC(c1ncccc1F)O3)C(=O)N2 (centres unmarked)
Found: 84
